system: OVCAR-5 ovarian; assay: NCI-60 one-dose screen, 48 h; settings: 10 µM unless noted
This is part of a sample that, as a whole, favours compounds with a hit. Of some 83,000 tested, about 20% had one in any assay. The source made the active and inactive calls. Rule for the calls: active = growth percent below 10; inactive = the rest.
Field 'call' accepts y for active, n for inactive

Completed entries (count: 2):
CC1(C)OCC(COC(c2ccccc2)(c2ccccc2)c2ccccc2)O1 (stereo unspecified) :: n
COC(=O)[C@]1(C)CCC[C@]2(C)c3ccc(C(C)C)cc3C(=O)[C@@H](Br)[C@@H]12 :: n

Req: Answer briefly: the call reported for O=C(Nc1ccc(Cl)c(Cl)c1)Nc1ccccc1O in this assay.
Resp: n

Req: Answer briefly: the call reported for NC(CS/C(Cl)=C/Cl)C(=O)O (stereo unspecified) in this assay.
Resp: n

Req: Answer briefly: the call reported for Nc1ccc(-c2ccc(N)c(S(=O)(=O)O)c2)cc1S(=O)(=O)O in this assay.
Resp: n

Req: Answer briefly: the call reported for OCCOSCCO in this assay.
Resp: n

Req: Answer briefly: the call reported for O=Nc1ccc2ccccc2c1O in this assay.
Resp: n

----------
system: U251 CNS; test: NCI-60 one-dose screen, 48 h; conditions: 10 µM unless noted
Compounds without any hit were thinned out: in the full panel of roughly 83,000, 20% have a hit. Calls of active or inactive are those of the source. How the source made its calls: active means growth percent below 10; inactive means the rest. Where a SMILES comes first, the peptide text is derived from it. [ ]: non-standard residue; d: D form. ξ: configuration not given here. ξD = NC(CC(=O)O)C(=O)O
Field 'call' accepts true = active, false = inactive

O=C(O)c1ccc2c(c1)C(=O)c1ccccc1C2=O :: false
Oc1ccccc1N=Cc1ccccc1 :: false
O=C1C=CC(=O)N1c1cc(Cl)c(Cl)cc1Cl :: false

Req: Answer briefly: the call reported for CCOc1ccc(Nc2nc3c(s2)C(=O)c2ccccc2C3=O)cc1 in this assay.
Resp: false

Req: Answer briefly: the call reported for CC(C)N=C(N)/N=C(\N)Nc1ccc2ccc3ccccc3c2c1 in this assay.
Resp: true

Req: Answer briefly: the call reported for COc1cc(NC(=O)C2=C(C)NC(C)=C(C(=O)Nc3cc(OC)c(Cl)cc3OC)C2c2cccc([N+](=O)[O-])c2)c(OC)cc1Cl in this assay.
Resp: false

Req: Answer briefly: the call reported for OC(c1cc2ccc(C(F)(F)F)cc2c2cc(C(F)(F)F)ccc12)C1CCCCN1 (stereo unspecified) in this assay.
Resp: true

Req: Answer briefly: the call reported for NCC(=O)NC(CC(=O)O)C(=O)O (stereo unspecified) (H-Gly-[ξD]-OH) in this assay.
Resp: false

Req: Answer briefly: the call reported for CC(C)(C)c1ccc(CCO)cc1 in this assay.
Resp: false

Req: Answer briefly: the call reported for N#C/C(=N\Nc1ccc(Cl)cc1)C(=O)C1CC1 in this assay.
Resp: false

Req: Answer briefly: the call reported for O=C(CBr)c1ccc(OC(=O)c2ccccc2)cc1 in this assay.
Resp: false

----------
System: RXF 393 renal
Assay: NCI-60 one-dose screen, 48 h
Settings: 10 µM unless noted
Method: Cells are grown in 96 well plates and exposed to the test compound for 48 hours. Compounds are tested at a single concentration, which is 10^-5 M for most compounds. The reported endpoint is percent growth (GI% or GIPRCNT), where numbers from 0 - 100% represent growth inhibition, and numbers from -100% - 0 represent cell death. For example, a value of 40 represents 60% growth inhibition. A value of 0 means no net growth occurred over the course of the experiment. […]
About 83,000 compounds went through this panel and 20% of them were active in at least one assay; those are over-represented in the sample as a whole. The source made the active and inactive calls. Rule for the calls: active = growth percent below 10; inactive = the rest.
Field 'call' accepts active, inactive

Completed entries (count: 10):
COC(=O)[C@]1(C)CCC[C@]2(C)c3ccc(C(C)C)cc3C(=O)[C@@H](Br)[C@@H]12 :: inactive
C1=C(c2ccccc2)c2ccccc2C1 :: inactive
O=[N+]([O-])c1ccc2c(c1)Cc1ccccc1-2 :: inactive
CCCCCCCCCCCC[n+]1ccc2ccccc2c1 :: active
CCN(CC)CCNc1ccc([N+](=O)[O-])c2sc3ccccc3c(=O)c12 :: active
CCc1oc2ccccc2c1C(=O)c1cc(Br)c(O)c(Br)c1 :: inactive
O=S(=O)(O)c1cnccn1 :: inactive
c1ccc2sc(SSN3CC4CCC(CC4)C3)nc2c1 :: active
O=[N+]([O-])c1ccc(C2N(Cc3ccc(Cl)cc3)CCN2Cc2ccc(Cl)cc2)cc1 :: inactive
CCCN(CCC)C(=O)c1ccc(C)cc1 :: inactive

Req: Answer briefly: the call reported for Cc1cc(N/N=C/c2ccccn2)nc2ccccc12 in this assay.
Resp: active

Req: Answer briefly: the call reported for O=C/C=C/c1ccc([N+](=O)[O-])cc1 in this assay.
Resp: inactive

Req: Answer briefly: the call reported for O=C1C=CC(=O)c2c(O)c(CO)c(CO)c(O)c21 in this assay.
Resp: inactive
